target-of-assay: ALK2 (Mus musculus)
Construct: endogenous in cells
Sequence (P37172 21-509): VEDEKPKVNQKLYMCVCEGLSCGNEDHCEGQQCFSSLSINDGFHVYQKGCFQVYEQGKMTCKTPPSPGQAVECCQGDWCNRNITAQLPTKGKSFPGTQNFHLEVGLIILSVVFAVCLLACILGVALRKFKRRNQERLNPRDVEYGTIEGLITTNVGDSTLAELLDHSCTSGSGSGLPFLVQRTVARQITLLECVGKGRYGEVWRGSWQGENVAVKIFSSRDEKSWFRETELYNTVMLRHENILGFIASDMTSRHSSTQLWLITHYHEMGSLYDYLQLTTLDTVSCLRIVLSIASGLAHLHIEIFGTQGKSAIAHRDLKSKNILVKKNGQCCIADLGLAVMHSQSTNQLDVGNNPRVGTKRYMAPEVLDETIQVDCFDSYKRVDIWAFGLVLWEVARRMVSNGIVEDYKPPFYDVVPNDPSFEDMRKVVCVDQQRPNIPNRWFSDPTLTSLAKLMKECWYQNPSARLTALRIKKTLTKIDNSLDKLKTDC
test-summary: Luciferase reporter gene assay for ALK2 activity (C2C12 BRE-Luc SMAD1/5/8 reporter, BMP6 agonist)
condition: BMP6 50 ng/mL
pIC50: −log10 of the molar value.
readout-type: pIC50

CN1CCN(C2CCN(c3cnc4c(-c5ccnc6cccnc56)cnn4c3)CC2)CC1; 6.23

(I) CN1CCN(C2CCN(c3cnc4c(-c5cccc6c(C(N)=O)cccc56)cnn4c3)CC2)CC1
(II) COc1cc2c(-c3cnn4cc(N5CCC6(CC5)CN(C)C6)cnc34)ccnc2cc1F [Compound 216]
(III) CNC(=O)c1cc(-c2cnn3cc(N4CCC(N5CCN(C)CC5)CC4)cnc23)ccn1
(IV) Cc1ccc2nccc(-c3cnn4cc(N5CCC(N6CCOCC6)CC5)cnc34)c2c1
(V) COc1cc2c(-c3cnn4cc(N5CCC(N6CCN(C)CC(F)(F)C6)CC5)cnc34)ccnc2cc1F
Sort by pIC50, descending. Output spec: labels arranged per the requested ranking. IV, II, I, III, V
(IV: 7.82, II: 7.62, I: 7.39, III: 6.71, V: 6.45)

(I) Cc1cc(-c2cnn3cc(N4CCC(N5CCN(C)CC5)CC4)cc(OC4CCOCC4)c23)c2ccccc2n1
(II) CS(=O)(=O)c1cccc(-c2cnn3cc(N4CCNCC4)cnc23)c1
Please let me know which one, I or II , has a lower measured pIC50 value. Select an item and report its label. I
(I: 6.57, II: 7.42)

----------
target-of-assay: ALK2 (Mus musculus)
Construct: endogenous in cells
test-summary: Luciferase reporter gene assay for ALK2 activity (C2C12 BRE-Luc SMAD1/5/8 reporter, BMP6 agonist)
condition: BMP6 50 ng/mL
readout-type: IC50 (µM)

Please review the entries below; each comes with its answer.
[2H]C([2H])([2H])c1ccc2nccc(-c3cnn4cc(N5CCC(N6CCN(C)CC6)CC5)cnc34)c2c1; 0.027
[2H]C([2H])([2H])N1CCN(C2CCN(c3cnc4c(-c5ccnc6cc(F)c(OC)cc56)cnn4c3)CC2)CC1; 0.024
COc1cc(-c2cnn3cc(N4CCC(N5CCN(C)CC5)CC4)cnc23)cc(OC)c1OC; 0.032
Cc1cc(-c2cnn3cc(N4CC(N5CCN(C)CC5)C4)cnc23)c2cccc(F)c2n1; 0.022

(a) Cc1cc2c(-c3cnn4cc(N5CC(N6CCOCC6)C5)cnc34)ccnc2cc1F
(b) Cc1cc(-c2cnn3cc(N4CCN(C5(C)CCNCC5)CC4)cnc23)c2ccccc2n1
(c) CN1CCN(C2CCN(c3cnc4c(-c5ccnc6ccc(F)cc56)cnn4c3)CC2)CC1
(d) CN1CCN(C2CCN(c3cnc4c(-c5cc(C(F)F)nc6ccccc56)cnn4c3)CC2)CC1
(e) CN1CCN(C2CCN(c3cnc4c(-c5ccnc(N6CCOCC6)c5)cnn4c3)CC2)CC1
Sort by IC50, descending. Output spec: labels arranged per the requested ranking. e, d, b, c, a
(e: 0.381 µM, d: 0.175 µM, b: 0.094 µM, c: 0.026 µM, a: 0.018 µM)

----------
target-of-assay: ALK2 (Mus musculus)
Construct: endogenous in cells
test-summary: Luciferase reporter gene assay for ALK2 activity (C2C12 BRE-Luc SMAD1/5/8 reporter, BMP6 agonist)
condition: BMP6 50 ng/mL
readout-type: IC50 (nM)

CN1CCN(C2CCN(c3cnc4c(-c5cc(C(F)(F)F)nc6ccccc56)cnn4c3)CC2)CC1; 975

(I) [2H]C([2H])([2H])Oc1cc2c(-c3cnn4cc(N5CCC(N6CCN(C)CC6)CC5)cnc34)ccnc2cc1F
(II) Cc1ccc2nccc(-c3cnn4cc(N5CCC(N6CCN(C)CC6)CC5)cnc34)c2c1F
Please let me know which one, I or II , has a lower measured IC50 value. Select an item and report its label. I

(P) COc1cc2c(-c3cnn4cc(N5CC(c6ccncc6)C5)cnc34)ccnc2cc1F
(Q) Cc1cc(-c2cnn3cc(N4CCOCC4)cnc23)c2ccccc2n1
(R) COc1cc2c(-c3cnc4cc(N5CCC(N6CCN(C)CC6)CC5)cnn34)ccnc2cc1F
(S) COc1cc2c(-c3cnn4cc(N5CCC(N6CCC(C)(N)CC6)CC5)cnc34)ccnc2cc1F
Sort by IC50, descending. Output spec: labels arranged per the requested ranking. Q, R, S, P

(1) COc1cc2c(-c3cnn4cc(N5CC(N6CCN(C)CC6)C5)cnc34)ccnc2cc1F
(2) Cc1cccc2c(-c3cnn4cc(N5CCC(N6CCN(C)CC6)CC5)cnc34)ccnc12
(3) CN1CCN(C2CCN(c3cnc4c(-c5ccnc6cc(F)c(Cl)cc56)cnn4c3)CC2)CC1
(4) CN1CCN(C2CCN(c3cnc4c(-c5cccc(P(C)(C)=O)c5)cnn4c3)CC2)CC1
Endpoint returns the given compounds ordered by ascending IC50. Output spec: labels arranged per the requested ranking. 1, 3, 4, 2
(1: 11 nM, 3: 16 nM, 4: 28 nM, 2: 558 nM)

----------
target-of-assay: ALK2 (Mus musculus, UniProt P37172)
Construct: endogenous in cells
test-summary: Luciferase reporter gene assay for ALK2 activity (C2C12 BRE-Luc SMAD1/5/8 reporter, BMP6 agonist)
condition: BMP6 50 ng/mL
Counter-ions that a name gives are not always drawn.
IC50 reference

What IC50 appears in the records for this molecule with ALK2 (Mus musculus, UniProt P37172)? CN1CCN(C2CCN(c3cnc4c(-c5ccnc6ccc(C#N)cc56)cnn4c3)CC2)CC1 > 1000 nM

What IC50 appears in the records for this molecule with ALK2 (Mus musculus, UniProt P37172)? CS(=O)(=O)c1cccc(-c2cnn3cc(N4CCN(C5CCNCC5)CC4)cnc23)c1 [Compound 213, trihydrochloride] < 1 nM

What IC50 appears in the records for this molecule with ALK2 (Mus musculus, UniProt P37172)? CN1CCN(C2CCN(c3cnc4c(-c5ccnc6cc(C(F)(F)F)ccc56)cnn4c3)CC2)CC1 > 1000 nM

What IC50 appears in the records for this molecule with ALK2 (Mus musculus, UniProt P37172)? CN1CCN(C2CN(c3cnc4c(-c5cccc6c(C(N)=O)cccc56)cnn4c3)C2)CC1 > 1000 nM

What IC50 appears in the records for this molecule with ALK2 (Mus musculus, UniProt P37172)? CN1CCN(C2CCN(c3cnc4c(-c5ccncc5)cnn4c3)CC2)CC1 > 1000 nM

What IC50 appears in the records for this molecule with ALK2 (Mus musculus, UniProt P37172)? COc1cc2c(-c3cnn4cc(N5CCC(N6CC7CCC(C6)N7C)CC5)cnc34)ccnc2cc1F 9 nM

----------
target-of-assay: ALK2 (Mus musculus)
Construct: endogenous in cells
Sequence (P37172 21-509): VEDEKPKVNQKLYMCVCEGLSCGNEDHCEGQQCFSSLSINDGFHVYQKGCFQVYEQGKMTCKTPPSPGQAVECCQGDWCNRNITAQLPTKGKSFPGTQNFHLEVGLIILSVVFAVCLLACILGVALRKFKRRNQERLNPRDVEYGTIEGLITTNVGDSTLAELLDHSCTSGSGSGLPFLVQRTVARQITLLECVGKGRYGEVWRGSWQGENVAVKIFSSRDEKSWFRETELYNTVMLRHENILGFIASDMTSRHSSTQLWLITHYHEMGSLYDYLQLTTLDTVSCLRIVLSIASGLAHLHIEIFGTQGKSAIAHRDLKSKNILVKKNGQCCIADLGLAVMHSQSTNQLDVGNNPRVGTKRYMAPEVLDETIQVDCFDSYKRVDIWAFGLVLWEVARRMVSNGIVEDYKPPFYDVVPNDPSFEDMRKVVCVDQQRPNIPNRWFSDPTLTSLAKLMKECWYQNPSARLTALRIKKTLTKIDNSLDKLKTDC
test-summary: Luciferase reporter gene assay for ALK2 activity (C2C12 BRE-Luc SMAD1/5/8 reporter, BMP6 agonist)
condition: BMP6 50 ng/mL
pIC50: −log10 of the molar value.
pIC50 reference

COc1cc2c(-c3cnn4cc(N5CCC(N6CCN(C)C(C)C6)CC5)cnc34)ccnc2cc1F (stereo not drawn) [Compound 41]; 6.63
CN1CCN(C2CCN(c3cnc4c(-c5cccc6[nH]ncc56)cnn4c3)CC2)CC1 [Compound 243]; < 6.00

Then there is this compound:
So what's the measured pIC50 for this one? CN1CCN(C2CCN(c3cnc4c(-c5ccnc6cc(OC(F)(F)F)ccc56)cnn4c3)CC2)CC1 [Compound 262] < 6.00
